- Tested on: Influenza A virus
- PROTOCOL TEXT: Antiviral activity against Influenza A virus (A/Puerto Rico/8/34(H1N1)) infected in MDCK cells expressing M2 V27T/S31N mutant after overnight incubation by fluorescence-based miniplaque assay
- Assay type: functional, organism-based, A/Puerto Rico/8/1934(H1N1)
Listed here: items and their measured pEC50.
The scale used: pEC50 is minus the common logarithm of the concentration in molar units.

[[record]]
compound = "CCCC1(N)C2CC3CC(C2)CC1C3 (stereo unspecified)"
observed = 6.30

[[record]]
compound = "CCCCC1(N)C2CC3CC(C2)CC1C3 (stereo unspecified)"
observed = 6.52


Entry CCC1(N)C2CC3CC(C2)CC1C3 (stereo unspecified) , pEC50 reported as 5.74

Entry CCCCCCC1(N)C2CC3CC(C2)CC1C3 (stereo unspecified) , pEC50 reported as 7.15

Entry NC12CC3CC(CC(C3)C1)C2 [AMANTADINE] , pEC50 reported as 4.62

Entry NC1(Cc2ccccc2)C2CC3CC(C2)CC1C3 (stereo unspecified) , pEC50 reported as 5.92

Entry NC1C2CC3CC(C2)CC1C3 (stereo unspecified) , pEC50 reported as 5.42

Data origin: ChEMBL document CHEMBL3286127
